Taken from patent US20220195057A1.

biological target: T1, human chemokine (C-C motif) receptor 8 (CCR8) protein (human, UniProt P51685 1-355); test: cell binding, CCR8-expressing CHO-K1 cells, curve fit
T1 construct: whole, on cells; also called human CCR8
Each entry below carries its recorded Top.
Returns: the value as a bare number; no unit string appended.

Some solved cases for reference:
88-H1L3 (antibody, V domains shown, Humanized 88D2C6) VH: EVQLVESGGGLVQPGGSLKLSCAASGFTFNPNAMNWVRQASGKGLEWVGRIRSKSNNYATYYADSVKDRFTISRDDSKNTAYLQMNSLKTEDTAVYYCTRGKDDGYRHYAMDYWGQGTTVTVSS VL: DIVMTQAPLSLPVTPGEPVSISCRSSKSLLHSNANTYLYWFLQKPGQSPQLLIYRMSNLASGVPDRFSGSGSGTAFTLKISRVEAEDVGVYYCMQHLEYPFTFGGGTKLEIK
31900
88-H3L3 (antibody, V domains shown, Humanized 88D2C6) VH: EVQLVESGGGLVQPGGSLKLSCAASGFTFNPNAMNWVRQASGKGLEWVARIRSKSNNYATYYADSVKDRFTISRDDSKNTLYLQMNNLKTEDTAVYYCVRGKDDGYRHYAMDYWGQGTTVTVSS VL: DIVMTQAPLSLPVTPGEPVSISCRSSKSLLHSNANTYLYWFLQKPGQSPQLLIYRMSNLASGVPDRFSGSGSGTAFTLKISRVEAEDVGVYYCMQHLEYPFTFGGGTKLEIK
32200
88-H3L2 (antibody, V domains shown, Humanized 88D2C6) VH: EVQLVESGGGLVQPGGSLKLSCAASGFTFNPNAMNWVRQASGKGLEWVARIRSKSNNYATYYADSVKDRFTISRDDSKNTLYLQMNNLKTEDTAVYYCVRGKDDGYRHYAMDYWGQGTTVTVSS VL: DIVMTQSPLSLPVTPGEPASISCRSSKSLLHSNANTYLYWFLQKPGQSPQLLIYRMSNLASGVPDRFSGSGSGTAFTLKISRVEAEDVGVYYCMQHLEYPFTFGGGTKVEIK
32500

(Q) What measured Top goes with 88-H2L3 (antibody, V domains shown, Humanized 88D2C6) VH: EVQLVESGGGLVQPGGSLKLSCAASGFTFNPNAMNWVRQASGKGLEWVGRIRSKSNNYATYYADSVKDRFTISRDDSKNTAYLQMNNLKTEDTAVYYCVRGKDDGYRHYAMDYWGQGTTVTVSS VL: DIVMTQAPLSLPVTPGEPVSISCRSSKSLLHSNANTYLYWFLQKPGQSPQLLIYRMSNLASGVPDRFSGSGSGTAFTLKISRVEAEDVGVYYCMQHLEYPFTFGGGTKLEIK ?
(A) 31600

(Q) Same read-out for 88-xi (antibody, V domains shown, also called 88D2C6; chimeric 88D2C6) VH: EVQLVETGGGLVQPKGSLKLSCAASGFTFNPNAMNWVRQAPGKGLEWVARIRSKSNNYATYYADSVKDRFTISRDDSQSMLYLQMNNLKTEDTAMYYCVRGKDDGYRHYAMDYWGQGTSVTVSS VL: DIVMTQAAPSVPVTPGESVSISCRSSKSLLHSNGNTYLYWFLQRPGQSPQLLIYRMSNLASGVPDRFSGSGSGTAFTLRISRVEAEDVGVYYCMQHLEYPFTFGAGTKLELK ?
(A) 33900

(Q) Same read-out for 88-H2L2 (antibody, V domains shown, Humanized 88D2C6) VH: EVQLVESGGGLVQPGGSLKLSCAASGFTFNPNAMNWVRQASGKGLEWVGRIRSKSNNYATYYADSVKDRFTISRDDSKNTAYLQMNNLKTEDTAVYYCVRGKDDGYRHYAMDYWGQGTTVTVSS VL: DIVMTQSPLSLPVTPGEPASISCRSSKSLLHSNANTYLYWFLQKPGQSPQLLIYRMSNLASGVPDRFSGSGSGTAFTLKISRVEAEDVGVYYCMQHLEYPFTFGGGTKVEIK ?
(A) 32800

(Q) Same read-out for 88-H1L2 (antibody, V domains shown, Humanized 88D2C6) VH: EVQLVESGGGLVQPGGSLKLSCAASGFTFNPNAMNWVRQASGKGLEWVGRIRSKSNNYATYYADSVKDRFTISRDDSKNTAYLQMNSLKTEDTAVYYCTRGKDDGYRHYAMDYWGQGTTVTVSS VL: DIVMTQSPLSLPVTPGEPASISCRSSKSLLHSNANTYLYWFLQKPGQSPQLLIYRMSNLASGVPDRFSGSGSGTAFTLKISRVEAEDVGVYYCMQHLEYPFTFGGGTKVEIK ?
(A) 32800
